# Protocol Summary: Determination of viscosity (Example 121, flow time in syringe against reference sample)
# Format: physicochemical
# Test Parameters: 350 mgI/ml, 20° C.
Could you please mark fulfilled for values of Viscosity below 8 mPas and not fulfilled for values at or above it?

Compound	Discrete Label
NC(=O)C(O)c1c(I)c(NC(=O)C(O)CO)c(I)c(C(=O)NCC(O)CO)c1I (stereo not drawn)	not fulfilled

Query :: Viscosity under 8 mPas? Item: NC(=O)C(O)c1c(I)c(NC(=O)[C@H](O)[C@@H](O)CO)c(I)c(NC(=O)[C@H](O)[C@@H](O)CO)c1I (stereo partly drawn)
Result :: not fulfilled

Query :: Viscosity under 8 mPas? Item: NC(=O)C(O)c1c(I)c(NC(=O)CO)c(I)c(NC(=O)[C@H](O)[C@H](O)CO)c1I (stereo partly drawn)
Result :: not fulfilled

Query :: Viscosity under 8 mPas? Item: CC1(C)OCC(CNC(=O)c2c(I)c(NC(=O)C3COC(C)(C)O3)c(I)c(C(C#N)O[Si](C)(C)C)c2I)O1 (stereo not drawn)
Result :: fulfilled

Query :: Viscosity under 8 mPas? Item: Nc1c(I)c(NC(=O)C(O)CO)c(I)c(C(O)C(=O)NC(=O)C(O)CO)c1I (stereo not drawn)
Result :: fulfilled

Query :: Viscosity under 8 mPas? Item: Nc1c(I)c(NC(=O)CO)c(I)c(C(O)C(=O)NC(=O)C(O)CO)c1I (stereo not drawn)
Result :: fulfilled
